Item-by-item account of composite z-score
target.desc: Torsin-1A (Homo sapiens) (UniProt O14656)
Sequence (O14656 whole entry, looked up): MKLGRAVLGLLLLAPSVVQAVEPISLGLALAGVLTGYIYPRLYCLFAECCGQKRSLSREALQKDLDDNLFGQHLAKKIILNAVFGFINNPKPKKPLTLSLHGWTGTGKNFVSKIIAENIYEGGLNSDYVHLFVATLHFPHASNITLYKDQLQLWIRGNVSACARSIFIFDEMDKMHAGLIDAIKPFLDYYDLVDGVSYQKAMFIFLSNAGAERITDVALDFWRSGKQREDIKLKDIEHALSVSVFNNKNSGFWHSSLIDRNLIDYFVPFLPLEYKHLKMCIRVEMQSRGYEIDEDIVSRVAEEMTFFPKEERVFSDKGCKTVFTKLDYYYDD
assay.details: torsin A mutant lysate binding on microarrays – cell lysate, small-molecule microarray, COS7 lysate, 635/667 nm fluorescence, primary screen (AID 1150);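 also: score pools 667 nm emission and signal to noise measuring lysate protein binding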
recorded.conditions: COS7 hTOR1A mutant lysate, 635 nm fluorescence, higher = more signal
Please reply with the number alone, leaving off any unit.

# example entries with known answers
compound: COC(=O)[C@@]1(Cc2ccc(OC)cc2)[C@H]2c3cc(C(=O)N4CCCC4)n(CCc4ccccn4)c3C[C@H]2CN1C(=O)c1ccccc1
composite z-score: 1.1

compound: [N-]=[N+]=NCc1ccccc1C[C@]1(C(=O)N2CCOCC2)N=C(c2ccc(OCCCO)cc2)O[C@H]1c1ccccc1
composite z-score: 0.348

compound: CN1C(=O)C2C=CC(C(O)C(c3ccccc3)c3ccccc3)N(Nc3ccccc3)C2C1=O (centres undefined)
composite z-score: 0.585

Now for another entry.
response.value for "COC(=O)[C@@]1(Cc2ccc(F)cc2)[C@H]2c3cc(C(=O)N(C)C)n(Cc4ccccn4)c3C[C@H]2CN1C(=O)c1ccccc1" (field: composite z-score) = 1.05

###

target.desc: Luciferin 4-monooxygenase (Photinus pyralis) (UniProt P08659)
Sequence (P08659 whole entry, looked up): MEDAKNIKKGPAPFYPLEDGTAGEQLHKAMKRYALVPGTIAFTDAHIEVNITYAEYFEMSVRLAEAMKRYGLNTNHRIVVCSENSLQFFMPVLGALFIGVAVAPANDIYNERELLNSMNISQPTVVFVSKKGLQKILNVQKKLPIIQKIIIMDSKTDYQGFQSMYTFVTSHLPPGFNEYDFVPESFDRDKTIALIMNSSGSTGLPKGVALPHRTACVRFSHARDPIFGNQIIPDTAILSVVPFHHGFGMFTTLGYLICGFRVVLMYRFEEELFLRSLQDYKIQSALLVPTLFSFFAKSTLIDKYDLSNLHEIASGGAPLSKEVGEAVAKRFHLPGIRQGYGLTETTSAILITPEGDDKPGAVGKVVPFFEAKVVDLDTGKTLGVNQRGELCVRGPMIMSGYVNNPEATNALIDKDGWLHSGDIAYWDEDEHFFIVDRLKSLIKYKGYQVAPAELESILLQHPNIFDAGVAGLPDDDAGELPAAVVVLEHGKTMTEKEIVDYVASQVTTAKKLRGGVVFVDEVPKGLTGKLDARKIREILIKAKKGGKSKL
assay.details: inhibition of purified Photinus pyralis luciferase – biochemical, luminescence, purified enzyme, 2006 set, primary screen (AID 1141);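 also: cell-free assay with purified firefly luciferase at 100 ng per well in PBS; test concentration not given here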
recorded.conditions: purified firefly luciferase, SteadyGlo luminescence, 30 min; higher = more signal, called active from +8 up or from −8 down
measured.attribute: z-score
Please reply with the number alone, leaving off any unit.

# example entries with known answers
compound: O=C1c2ccccc2[C@](Cc2ccccc2I)(C(=O)O)[C@H](c2ccc(CO)cc2)N1Cc1ccccc1C(F)(F)F
z-score: 0.63
--
compound: CCOC(=O)C1=CC[C@@H](c2ccccc2)N(S(=O)(=O)c2ccc(C)cc2)[C@H]1c1ccc(C#N)cc1
z-score: 1.23
--
compound: COCC1=C([C@H](O)CCc2ccccc2)[C@H](CO)[C@@H]2C(=O)N(Cc3ccccc3)C(=O)[C@@H]2C1
z-score: 0.24

Now for another entry.
response.value for "O=C(CS)NCCCCCCNC(=O)[C@H]1C[C@H]2C(=O)N3CCC[C@H]3C(=O)N2[C@H]1c1ccc(O)cc1" (field: z-score) = 0.102

###

assay.details: FRG1 expression reporter modulators in myotubes – cell-based, C2C12 myotubes, firefly/Renilla luciferase, luminescence, FRG1 inhibition for FSHD, primary screen (AID 1084)
recorded.conditions: FRG1 promoter luciferase, higher = more signal, called active from +8 up or from −8 down
Respond with True for z-score values of -0.3 and above, False for values below.

Please review the entries below; each comes with its answer.
molecule: Cc1ccc(N2C(=O)c3ccccc3[C@@H](C(=O)NCC(C)C)[C@@H]2c2ccc(CO)cc2)nc1
label.value: False
--
molecule: COCC1C2CC[C@H]3C(OCc4ccc(F)cc4C(F)(F)F)OC[C@]4(C)[C@H]3C2=C(CN4C(=O)OC(C)(C)C)[C@H](C)C1COC (some centres not stated)
label.value: True
--
molecule: C=C[C@H](C)[C@H](OC(=O)Nc1ccc(OC)cc1)c1ccc(O)c2ccccc12
label.value: True

# input Confirm if z-score reported for the molecule "[N-]=[N+]=NCc1ccccc1[C@@H]1OC(c2ccc(OCCCO)cc2)=N[C@]1(Cc1ccccc1)C(=O)O" is -0.3 or above.
# output True

# input Confirm if z-score reported for the molecule "COC(=O)[C@@]1(Cc2ccc(F)cc2)[C@H]2c3cc(C(=O)N4CCCC4)n(Cc4ccc(Cl)c(C(F)(F)F)c4)c3C[C@H]2CN1C(=O)c1ccccc1" is -0.3 or above.
# output True

# input Confirm if z-score reported for the molecule C=CCC(OC(C)=O)[C@@H]1[C@@H](N(Cc2ccc(-c3cccc(C(F)(F)F)c3)o2)C(=O)c2ccc(C)cc2)c2cc(OCCCO)ccc2N1C(=O)c1ccc2ccccc2n1 (some centres not stated) is -0.3 or above.
# output False

# input Confirm if z-score reported for the molecule "O=C(NCc1ccccc1)[C@@H]1c2ccccc2C(=O)N(C2CCCCC2)[C@H]1c1ccc(CO)cc1" is -0.3 or above.
# output False

###

target.desc: Follistatin (Homo sapiens)
assay.details: FST protein binding to printed compounds – biochemical, small-molecule microarray, 635/667 nm fluorescence, primary screen (AID 1132)
recorded.conditions: 635 nm fluorescence, higher = more signal
Item-by-item account of composite z-score
Please reply with the number alone, leaving off any unit.

# example entries with known answers
compound: [N-]=[N+]=Nc1ccccc1C[C@]1(C(=O)N2CCCCC2)N=C(c2ccc(OCCCO)cc2)O[C@H]1c1ccccc1N=[N+]=[N-]
measured.attribute: composite z-score
obs.value: 1.18

compound: CC1CC/C=C\[C@H]2OC34C=CCN(CCN5CCOCC5)C(=O)[C@H]3N(CCCCCO)C(=O)[C@@H]4C2C(=O)O1 (stereo partly specified)
measured.attribute: composite z-score
obs.value: -0.381

compound: Cc1ccc([C@H]2C(C(=O)O)=C[C@@H](C(C)C)N2S(=O)(=O)c2ccc(C)cc2)cc1
measured.attribute: composite z-score
obs.value: 0.126

compound: Cc1ccc(N2C(=O)c3ccccc3[C@@H](C(=O)NC(C)C)[C@@H]2c2ccc(CO)cc2)nc1
measured.attribute: composite z-score
obs.value: 0.931

compound: O=C(NCC(F)(F)F)[C@@H]1c2ccccc2C(=O)N(Cc2ccccc2)[C@H]1c1ccc(CO)cc1
measured.attribute: composite z-score
obs.value: -1.25

// composite z-score (Follistatin (Homo sapiens)) for "C=C(CCCC)/C(=C/C[C@@H](OC(=O)c1ccncc1)c1ccc(CO)o1)c1cc(C(=O)OC)ccc1OC" = 1.16

// composite z-score (Follistatin (Homo sapiens)) for "COC(=O)[C@@]1(Cc2ccc(F)cc2)[C@H]2c3cc(C(=O)N4CCCC4)n(CCc4ccc(OC)c(Br)c4)c3C[C@H]2CN1C(=O)c1ccccc1" = 1.08

// composite z-score (Follistatin (Homo sapiens)) for "C=CCN1Cc2ccccc2C[C@]2(N=C(c3ccc(OCCCO)cc3)O[C@@H]2c2ccccc2)C1=O" = 1.36

// composite z-score (Follistatin (Homo sapiens)) for "C=C[C@H](OC)[C@@H](OC(=O)Nc1ccc(SC)cc1)c1ccc(OCCO)cc1" = 0.236

// composite z-score (Follistatin (Homo sapiens)) for "O=C(NCc1ccccc1)[C@@H]1c2ccccc2C(=O)N(Cc2cc(F)cc(C(F)(F)F)c2)[C@H]1c1ccc(CO)cc1" = 1.27

// composite z-score (Follistatin (Homo sapiens)) for "COCCOC(=O)N1C(=O)[C@@]2(c3cc(C#Cc4ccc(OC)cc4)ccc31)[C@H](C(N)=O)[C@H]1C(=O)O[C@H](c3ccccc3)[C@H](c3ccccc3)N1[C@@H]2c1ccc(O)cc1" = -0.694

// composite z-score (Follistatin (Homo sapiens)) for COc1cc(NN2C(C(O)c3ccccc3)C=CC3C(=O)N(c4ccccc4)C(=O)C32)cc(OC)c1OC (stereo unspecified) = 0.952

// composite z-score (Follistatin (Homo sapiens)) for "CN(C)CCCC[C@@H]1NC(=O)[C@H]2C[C@@H](C(=O)NCCCCCNC(=O)CS)[C@@H](c3ccc(O)cc3)N2C1=O" = 0.756

// composite z-score (Follistatin (Homo sapiens)) for CCCCCCCCCCC(O)C1C=CC2C(=O)N(c3ccccc3)C(=O)C2N1Nc1ccc([N+](=O)[O-])cc1 (stereo unspecified) = 0.8

// composite z-score (Follistatin (Homo sapiens)) for O=C1C2C=CC(C(O)c3ccc(B(O)O)cc3)N(Nc3ccc([N+](=O)[O-])cc3)C2C(=O)N1c1ccccc1 (stereo unspecified) = 1.13

// composite z-score (Follistatin (Homo sapiens)) for O=C(NCC(O)CO)[C@@]1(Cc2ccccc2)N=C(c2ccc(OCCCO)cc2)O[C@H]1c1ccccc1 (stereo partly specified) = 1.29

###

target.desc: Focal adhesion kinase 1 (Homo sapiens)
assay.details: PTK2 protein binding on printed compound slides – biochemical, small-molecule microarray, 635/667 nm fluorescence, BSA, DTT, primary screen (AID 1130);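 also: composite of spot emission at 667 nm and signal to noise over triplicate slides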
recorded.conditions: 635 nm fluorescence, higher = more signal
Respond with class 1 for composite z-score values of 0.5 and above, class 0 for values below.

molecule: CC(C)[Si]1(C(C)C)O[C@@H](c2ccccc2)c2cc(-c3ccc(-c4ccc(Cl)c(Cl)c4)o3)nc(CCc3ccccc3)c21
target.desc: Focal adhesion kinase 1 (Homo sapiens)
label.value: class 0

molecule: Cc1cc(C)c(C(O)C2C=CC3C(=O)NC(=O)C3N2Nc2ccccn2)c(C)c1 (stereo not given)
target.desc: Focal adhesion kinase 1 (Homo sapiens)
label.value: class 0

molecule: O=C(NCC(F)(F)F)[C@@H]1c2ccccc2C(=O)N(Cc2ccccc2)[C@H]1c1ccc(CO)cc1
target.desc: Focal adhesion kinase 1 (Homo sapiens)
label.value: class 0

molecule: CCCCCCCCCCC(O)C1C=CC2C(=O)N(c3ccccc3)C(=O)C2N1Nc1ccc([N+](=O)[O-])cc1 (stereo not given)
target.desc: Focal adhesion kinase 1 (Homo sapiens)
label.value: class 1

molecule: COCCn1c(C(=O)N(C)C)cc2c1C[C@H]1CN(C(=O)c3ccccc3)[C@@](Cc3ccc(F)cc3)(C(=O)OC)[C@@H]21
target.desc: Focal adhesion kinase 1 (Homo sapiens)
label.value: class 0

# input Confirm if composite z-score reported for the molecule C=CCC(OC(C)=O)[C@@H]1[C@@H](N(Cc2cc3ccccc3o2)C(=O)c2ccc(-c3ccccc3)cc2)c2cc(OCCCO)ccc2N1C(=O)Cc1ccc2ccccc2c1 (stereo not given in full) is 0.5 or above.
# output class 0

# input Confirm if composite z-score reported for the molecule O=C(NCC(O)CO)[C@@]1(Cc2ccccc2)COC(c2ccc(OCCCO)cc2)=N1 (stereo not given in full) is 0.5 or above.
# output class 0

# input Confirm if composite z-score reported for the molecule "C=C(CCCC)C(=O)CC[C@@H](OC(=O)c1ccccc1-c1ccccc1C(=O)O)c1ccc(CO)o1" is 0.5 or above.
# output class 0

# input Confirm if composite z-score reported for the molecule O=C1C2C=CC(C(O)c3ccc(B(O)O)cc3)N(Nc3ccc([N+](=O)[O-])cc3)C2C(=O)N1c1ccccc1 (stereo not given) is 0.5 or above.
# output class 0

# input Confirm if composite z-score reported for the molecule "COc1ccc([Si](C)(C)[C@H]2[C@H](CC(=O)N(CCO)Cc3ccccc3)O[C@@]3(C(=O)N(Cc4cccc(N5C(=O)c6cccc7cccc5c67)c4)c4ccccc43)[C@@H]2C)cc1" is 0.5 or above.
# output class 0

# input Confirm if composite z-score reported for the molecule [N-]=[N+]=NCc1ccccc1C[C@]1(C(=O)NCC(O)CO)COC(c2ccc(OCCCO)cc2)=N1 (stereo not given in full) is 0.5 or above.
# output class 1

# input Confirm if composite z-score reported for the molecule CN1C(=O)C2C(C1=O)C1C=C(c3ccc(CO)cc3)C2C(C2CC2)N1Cc1cc2c(cc1Br)OCO2 (stereo not given) is 0.5 or above.
# output class 1
